- assay-target: hERG (KCNH2) (Homo sapiens)
- Sequence (Q12809 whole entry): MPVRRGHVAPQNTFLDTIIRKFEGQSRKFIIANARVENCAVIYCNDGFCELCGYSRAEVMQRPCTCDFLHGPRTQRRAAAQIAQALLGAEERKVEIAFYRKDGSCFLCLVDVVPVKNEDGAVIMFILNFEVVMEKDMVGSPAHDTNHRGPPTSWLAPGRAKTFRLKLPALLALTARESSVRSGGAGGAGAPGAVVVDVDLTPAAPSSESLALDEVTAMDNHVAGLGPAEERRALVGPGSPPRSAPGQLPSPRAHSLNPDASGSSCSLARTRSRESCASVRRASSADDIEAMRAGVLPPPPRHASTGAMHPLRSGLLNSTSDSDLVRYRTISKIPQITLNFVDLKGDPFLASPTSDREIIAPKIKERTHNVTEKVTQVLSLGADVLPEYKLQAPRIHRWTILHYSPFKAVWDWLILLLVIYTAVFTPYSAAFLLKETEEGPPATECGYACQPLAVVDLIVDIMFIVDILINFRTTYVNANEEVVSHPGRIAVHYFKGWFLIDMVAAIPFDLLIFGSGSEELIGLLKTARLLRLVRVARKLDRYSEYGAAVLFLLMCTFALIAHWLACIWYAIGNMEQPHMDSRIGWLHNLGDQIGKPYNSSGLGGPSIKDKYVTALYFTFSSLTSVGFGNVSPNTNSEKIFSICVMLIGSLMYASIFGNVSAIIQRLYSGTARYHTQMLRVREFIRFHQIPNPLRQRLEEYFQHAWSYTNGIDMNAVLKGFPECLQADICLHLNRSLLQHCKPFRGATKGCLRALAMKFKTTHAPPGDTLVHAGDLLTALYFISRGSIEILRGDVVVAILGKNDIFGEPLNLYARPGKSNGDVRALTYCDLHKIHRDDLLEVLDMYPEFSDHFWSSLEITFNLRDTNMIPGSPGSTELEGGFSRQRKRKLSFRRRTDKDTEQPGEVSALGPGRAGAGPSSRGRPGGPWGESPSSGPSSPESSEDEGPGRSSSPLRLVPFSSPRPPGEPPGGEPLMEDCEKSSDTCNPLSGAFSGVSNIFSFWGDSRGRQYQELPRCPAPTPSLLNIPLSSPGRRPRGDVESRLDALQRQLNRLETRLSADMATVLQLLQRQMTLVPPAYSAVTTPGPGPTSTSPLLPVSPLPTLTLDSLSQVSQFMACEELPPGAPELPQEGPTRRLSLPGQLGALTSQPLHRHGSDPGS
- method-summary: Inhibition of human ERG at 1.5 mg/ml by binding assay relative to control
- Set-up: dose or concentration left out as unconfirmed
endpoint-label: inhibition (%)
Only the number, expressed in %, is required.

Solved cases (6 shown):
COc1cc(-c2n[nH]c3ccc(NC(=O)[C@]4(SC)CCN(CC(=O)N5CC=C(c6ccc(-c7ncccn7)cc6)CC5)C4)cc23)ccn1: 2
CS[C@@]1(C(=O)Nc2ccc3[nH]nc(-c4ccnc(OC(C)C)c4)c3c2)CCN(CC(=O)N2CC=C(c3ccc(-c4ncn(C)n4)cc3)CC2)C1: 3
CCNc1ncc(-c2ccc(C3=CCN(C(=O)CN4CC[C@@](SC)(C(=O)Nc5ccc6[nH]nc(-c7ccnc(C)c7)c6c5)C4)CC3)cc2)s1: -7
CS[C@@]1(C(=O)Nc2ccc3[nH]nc(-c4ccc(F)cc4)c3c2)CCN(CC(=O)N2CC=C(c3ncc(-c4ncccn4)s3)CC2)C1: -5
CCNc1nnc(-c2ccc(C3=CCN(C(=O)CN4CC[C@@](SC)(C(=O)Nc5ccc6[nH]nc(-c7ccc(F)cc7)c6c5)C4)CC3)cc2)o1: -3
CS[C@@]1(C(=O)Nc2ccc3[nH]nc(-c4ccc(F)cc4)c3c2)CCN(CC(=O)N2CC=C(c3nc(-c4ncccn4)cs3)CC2)C1: 6

Exercise: Query: inhibition; subject: CS[C@@]1(C(=O)Nc2ccc3[nH]nc(-c4ccc(OC(C)C)nc4)c3c2)CCN(CC(=O)N2CC=C(c3ccc(-c4ncccn4)cc3)CC2)C1
Key: 25

Exercise: Try the compound CS[C@@]1(C(=O)Nc2ccc3[nH]nc(-c4ccc(OC(C)C)nc4)c3c2)CCN(CC(=O)N2CC=C(c3ccc(-c4ncn(C)n4)cc3)CC2)C1 [MK-8353]
Key: -3.5

Exercise: Try the compound CS[C@@]1(C(=O)Nc2ccc3[nH]nc(-c4ccc5c(c4)OCO5)c3c2)CCN(CC(=O)N2CC=C(c3ccc(-c4ncccn4)cc3)CC2)C1
Key: 19

Exercise: Try the compound CS[C@@]1(C(=O)Nc2ccc3[nH]nc(-c4ccc(F)cc4)c3c2)CCN(CC(=O)N2CC=C(c3ccc(-c4ncccn4)cc3F)CC2)C1
Key: 11

Exercise: Try the compound CS[C@@]1(C(=O)Nc2ccc3[nH]nc(-c4ccc(F)cc4)c3c2)CCN(CC(=O)N2CCC(c3ccc(-c4ncccn4)cc3)CC2)C1
Key: 22

Exercise: Try the compound CS[C@@]1(C(=O)Nc2ccc3[nH]nc(-c4ccc(F)cc4)c3c2)CCN(CC(=O)N2CCN(c3ccc(-c4ncccn4)cc3)CC2)C1
Key: 3

Taken from ChEMBL document CHEMBL4196128.
